Test system: 991263-137-R1-J2-PDC complex spheroid viability
assay text: Anticancer human tumor 991263-137-R1-J2-PDC patient-derived colon adenocarcinoma cell line growth inhibition [POLQ]
test parameters: second compound 3.16 µM; first compound 0.01 µM; stronger effect = lower value
viability, T/C for assorted compounds
Record the value in %, omitting the unit from your answer.

compound	system name	viability, T/C / %
COc1cccc(OCCCN)c1-c1cc(Nc2cnc(C#N)cn2)n[nH]1 + Cc1cccc(N(C)C(=O)C2C(O)CCN2c2nc(C)cc(C(F)(F)F)c2C#N)c1	991263-137-R1-J2-PDC complex spheroid viability	108
Cn1ncnc1[C@H]1c2n[nH]c(=O)c3cc(F)cc(c23)N[C@@H]1c1ccc(F)cc1 + Cc1cccc(N(C)C(=O)C2C(O)CCN2c2nc(C)cc(C(F)(F)F)c2C#N)c1	991263-137-R1-J2-PDC complex spheroid viability	78.5
COc1cccc(OCCCN)c1-c1cc(Nc2cnc(C#N)cn2)n[nH]1 + Nc1ccc(C#CCN(C(=O)Cc2ncc(C(F)(F)F)cc2C(F)(F)F)c2ccc(F)cc2)nn1	991263-137-R1-J2-PDC complex spheroid viability	93.2
Cn1ncnc1[C@H]1c2n[nH]c(=O)c3cc(F)cc(c23)N[C@@H]1c1ccc(F)cc1 + Nc1ccc(C#CCN(C(=O)Cc2ncc(C(F)(F)F)cc2C(F)(F)F)c2ccc(F)cc2)nn1	991263-137-R1-J2-PDC complex spheroid viability	97.7
C=CCn1c(=O)c2cnc(Nc3ccc(N4CCN(C)CC4)cc3)nc2n1-c1cccc(C(C)(C)O)n1 + Cc1cccc(N(C)C(=O)C2C(O)CCN2c2nc(C)cc(C(F)(F)F)c2C#N)c1	991263-137-R1-J2-PDC complex spheroid viability	101
CCc1c2c(nc3ccc(O)cc13)-c1cc3c(c(=O)n1C2)COC(=O)[C@]3(O)CC + Nc1ccc(C#CCN(C(=O)Cc2ncc(C(F)(F)F)cc2C(F)(F)F)c2ccc(F)cc2)nn1	991263-137-R1-J2-PDC complex spheroid viability	72.7
CC[C@@]1(O)C(=O)OCc2c1cc1n(c2=O)Cc2cc3c(CN(C)C)c(O)ccc3nc2-1 + COC1C(OC(N)=O)C(O)C(Oc2ccc3c(O)c(NC(=O)c4ccc(O)c(CC=C(C)C)c4)c(=O)oc3c2C)OC1(C)C	991263-137-R1-J2-PDC complex spheroid viability	112
C=CCn1c(=O)c2cnc(Nc3ccc(N4CCN(C)CC4)cc3)nc2n1-c1cccc(C(C)(C)O)n1 + Nc1ccc(C#CCN(C(=O)Cc2ncc(C(F)(F)F)cc2C(F)(F)F)c2ccc(F)cc2)nn1	991263-137-R1-J2-PDC complex spheroid viability	102
CCc1c2c(nc3ccc(O)cc13)-c1cc3c(c(=O)n1C2)COC(=O)[C@]3(O)CC + COC1C(OC(N)=O)C(O)C(Oc2ccc3c(O)c(NC(=O)c4ccc(O)c(CC=C(C)C)c4)c(=O)oc3c2C)OC1(C)C	991263-137-R1-J2-PDC complex spheroid viability	66.6
CCc1c2c(nc3ccc(O)cc13)-c1cc3c(c(=O)n1C2)COC(=O)[C@]3(O)CC + Cc1cccc(N(C)C(=O)C2C(O)CCN2c2nc(C)cc(C(F)(F)F)c2C#N)c1	991263-137-R1-J2-PDC complex spheroid viability	92.5

Which measured viability, T/C value corresponds to C=CCn1c(=O)c2cnc(Nc3ccc(N4CCN(C)CC4)cc3)nc2n1-c1cccc(C(C)(C)O)n1 + COC1C(OC(N)=O)C(O)C(Oc2ccc3c(O)c(NC(=O)c4ccc(O)c(CC=C(C)C)c4)c(=O)oc3c2C)OC1(C)C ?
81.2

Could you do the same for COc1cccc(OCCCN)c1-c1cc(Nc2cnc(C#N)cn2)n[nH]1 + COC1C(OC(N)=O)C(O)C(Oc2ccc3c(O)c(NC(=O)c4ccc(O)c(CC=C(C)C)c4)c(=O)oc3c2C)OC1(C)C , please?
74.2

Could you do the same for CC[C@@]1(O)C(=O)OCc2c1cc1n(c2=O)Cc2cc3c(CN(C)C)c(O)ccc3nc2-1 + Cc1cccc(N(C)C(=O)C2C(O)CCN2c2nc(C)cc(C(F)(F)F)c2C#N)c1 , please?
86.6

Could you do the same for Cn1ncnc1[C@H]1c2n[nH]c(=O)c3cc(F)cc(c23)N[C@@H]1c1ccc(F)cc1 + COC1C(OC(N)=O)C(O)C(Oc2ccc3c(O)c(NC(=O)c4ccc(O)c(CC=C(C)C)c4)c(=O)oc3c2C)OC1(C)C , please?
102

Could you do the same for CC[C@@]1(O)C(=O)OCc2c1cc1n(c2=O)Cc2cc3c(CN(C)C)c(O)ccc3nc2-1 + Nc1ccc(C#CCN(C(=O)Cc2ncc(C(F)(F)F)cc2C(F)(F)F)c2ccc(F)cc2)nn1 , please?
93.1

###

Tested on: 991263-137-R1-J2-PDC complex spheroid viability
assay text: Anticancer human tumor 991263-137-R1-J2-PDC cell line growth inhibition [POLQ];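 further: spheroids exposed to compounds for 7 days before readout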
test parameters: curve of first compound; second compound 0.1 µM
pIC50: −log10 of the molar value.
reported metric: pIC50

# annotated cases, reported pIC50 shown
compound	pIC50
Nc1ccn(C2OC(CO)C(O)C2(F)F)c(=O)n1 (stereo unspecified) + Nc1ccc(C#CCN(C(=O)Cc2ncc(C(F)(F)F)cc2C(F)(F)F)c2ccc(F)cc2)nn1	< 5.00
CCCS(=O)(=O)Nc1ccc(F)c(C(=O)c2c[nH]c3ncc(-c4ccc(Cl)cc4)cc23)c1F + Nc1ccc(C#CCN(C(=O)Cc2ncc(C(F)(F)F)cc2C(F)(F)F)c2ccc(F)cc2)nn1	< 5.00
CCCS(=O)(=O)Nc1ccc(F)c(C(=O)c2c[nH]c3ncc(-c4ccc(Cl)cc4)cc23)c1F + COC1C(OC(N)=O)C(O)C(Oc2ccc3c(O)c(NC(=O)c4ccc(O)c(CC=C(C)C)c4)c(=O)oc3c2C)OC1(C)C	< 5.00
CC[C@@]1(O)C(=O)OCc2c1cc1n(c2=O)Cc2cc3c(CN(C)C)c(O)ccc3nc2-1 + Nc1ccc(C#CCN(C(=O)Cc2ncc(C(F)(F)F)cc2C(F)(F)F)c2ccc(F)cc2)nn1	< 7.00
Nc1ccn(C2OC(CO)C(O)C2(F)F)c(=O)n1 (stereo unspecified) + COC1C(OC(N)=O)C(O)C(Oc2ccc3c(O)c(NC(=O)c4ccc(O)c(CC=C(C)C)c4)c(=O)oc3c2C)OC1(C)C	6.05

Which measured pIC50 value corresponds to COc1cc2cc(C(=O)CCC(=O)O)sc2cc1OC + COC1C(OC(N)=O)C(O)C(Oc2ccc3c(O)c(NC(=O)c4ccc(O)c(CC=C(C)C)c4)c(=O)oc3c2C)OC1(C)C ?
< 5.00

Could you do the same for C#Cc1c(F)ccc2cc(O)cc(-c3ncc4c(N5CC6CCC(C5)N6)nc(OCC56CCCN5CC(F)C6)nc4c3F)c12 (stereo unspecified) + Nc1ccc(C#CCN(C(=O)Cc2ncc(C(F)(F)F)cc2C(F)(F)F)c2ccc(F)cc2)nn1 , please?
< 5.00

Could you do the same for CC1COCCN1c1cc(-c2ccnn2C)c2ccnc(-c3ccn[nH]3)c2n1 (stereo unspecified) + Cc1cccc(N(C)C(=O)C2C(O)CCN2c2nc(C)cc(C(F)(F)F)c2C#N)c1 , please?
6.00

Could you do the same for CCc1c2c(nc3ccc(O)cc13)-c1cc3c(c(=O)n1C2)COC(=O)[C@]3(O)CC + Cc1cccc(N(C)C(=O)C2C(O)CCN2c2nc(C)cc(C(F)(F)F)c2C#N)c1 , please?
7.00

Could you do the same for CC1COCCN1c1cc(C2(S(C)(=N)=O)CC2)nc(-c2ccnc3[nH]ccc23)n1 (stereo unspecified) + Nc1ccc(C#CCN(C(=O)Cc2ncc(C(F)(F)F)cc2C(F)(F)F)c2ccc(F)cc2)nn1 , please?
< 5.00

Could you do the same for C#Cc1c(F)ccc2cc(O)cc(-c3ncc4c(N5CC6CCC(C5)N6)nc(OCC56CCCN5CC(F)C6)nc4c3F)c12 (stereo unspecified) + Cc1cccc(N(C)C(=O)C2C(O)CCN2c2nc(C)cc(C(F)(F)F)c2C#N)c1 , please?
< 5.00

###

System: 991263-137-R1-J2-PDC complex spheroid viability
assay text: Anticancer human tumor 991263-137-R1-J2-PDC cell line growth inhibition [POLQ];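 further: spheroids exposed to compounds for 7 days before readout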;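 on viability, T/C: 100% = DMSO vehicle control viability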
test parameters: second compound 0.1 µM; first compound 10 µM; stronger effect = lower value
reported metric: viability, T/C (%)
Record the value in %, omitting the unit from your answer.

Give the reported viability, T/C for CC1COCCN1c1cc(-c2ccnn2C)c2ccnc(-c3ccn[nH]3)c2n1 (stereo not drawn) + Cc1cccc(N(C)C(=O)C2C(O)CCN2c2nc(C)cc(C(F)(F)F)c2C#N)c1 (system: 991263-137-R1-J2-PDC complex spheroid viability).
33.5

Could you do the same for COc1ccc([C@@H](O)c2cc(-c3ncnc4cc(N5CCOCC5)ccc34)c(F)cc2Cl)nn1 + COC1C(OC(N)=O)C(O)C(Oc2ccc3c(O)c(NC(=O)c4ccc(O)c(CC=C(C)C)c4)c(=O)oc3c2C)OC1(C)C , please?
30.9

Could you do the same for CCCS(=O)(=O)Nc1ccc(F)c(C(=O)c2c[nH]c3ncc(-c4ccc(Cl)cc4)cc23)c1F + Cc1cccc(N(C)C(=O)C2C(O)CCN2c2nc(C)cc(C(F)(F)F)c2C#N)c1 , please?
104

Just for reference, PubChem BioAssay AID1963828 is where these values come from.
